Every entry's value here was drawn from patent US20200362047A1.

measured on: T1, human CD137-human Fc chimeric protein (Acro Biosystems cat no. 41B-H5258) (human, UniProt Q07011 24-186)
T1 construct: Bought protein; The Octet Protein G and Biacore experiments name no catalogue number; also called human CD137Fc recombinant protein; human CD137-Fc recombinant protein; not shown: human IgG1 Fc tag
assay text: BLI (Octet RED384), CD137-Fc amine-coupled to AR2G sensors, 1:1 model

{"binder": "4.1(PSMA-binding VH)-6GS-1.1 (bispecific antibody, tandem VH, PSMA x CD137; also called 4.1-6GS-1.1; not shown: His tag) EVQLVESGGGVVQPGRSLRLSCAASGFSFSGYGMHWVRQAPGKGLEWVAYISYDGSNKYYADSVKGRFTISRDNSKNTLYLQMNSLRAEDTAVYYCAKDPAWGLRLGESSSYDFDIWGQGTMVTVSSGGGGSGGGGSGGGGSGGGGSGGGGSGGGGSEVQLVESGGGLVQPGGSLRLSCAASGFTFSSHWMTWFRQAPGKGLEWVAHIKEDGSEKYYEDSVEGRFTVSRDNAKNSVYLQMNSLRAEDTAVYYCARGGDGYSDSHFGVDVWGQGTTVTVSS", "unit": "nM", "Kd": 0.73}
{"binder": "Humabody VH 2.1 (VHH, human single VH domain) VH: EVQLVESGGGLVKPGGSLRVSCAASGFTFSDYYMSWFRQAPGKGLEWVSYISGSGDIIDYADSVKGRFTISRDNAKNSLYLQMNNLRAEDTAVYHCAREDSRLTGTTDFDNWGQGTLVTVSSHHHHHH", "unit": "nM", "Kd": 6.7}
{"binder": "Humabody VH 1.1 (VHH, human single VH domain; also called single domain antibody 1.1) VH: EVQLVESGGGLVQPGGSLRLSCAASGFTFSSHWMTWFRQAPGKGLEWVAHIKEDGSEKYYEDSVEGRFTVSRDNAKNSVYLQMNSLRAEDTAVYYCARGGDGYSDSHFGVDVWGQGTTVTVSSHHHHHH", "unit": "nM", "Kd": 0.52}
{"binder": "4.1(PSMA-binding VH)-6GS-2.1 (bispecific antibody, tandem VH, PSMA x CD137; also called 4.1-6GS-2.1; not shown: His tag) EVQLVESGGGVVQPGRSLRLSCAASGFSFSGYGMHWVRQAPGKGLEWVAYISYDGSNKYYADSVKGRFTISRDNSKNTLYLQMNSLRAEDTAVYYCAKDPAWGLRLGESSSYDFDIWGQGTMVTVSSGGGGSGGGGSGGGGSGGGGSGGGGSGGGGSEVQLVESGGGLVKPGGSLRVSCAASGFTFSDYYMSWFRQAPGKGLEWVSYISGSGDIIDYADSVKGRFTISRDNAKNSLYLQMNNLRAEDTAVYHCAREDSRLTGTTDFDNWGQGTLVTVSS", "unit": "nM", "Kd": 4.8}
